molecular target: HLA-A*02-presented MAGEA1-003 (on target cells) (human); experiment: cell-based or functional assay
EC50 of IFNγ release, T2 cells loaded with titrated MAGEA1-003 peptide overview
readout_type: EC50 of IFNγ release, T2 cells loaded with titrated MAGEA1-003 peptide (nM)

binder="TCR R26P2A6 (TCR, V domains shown) V domain 1: QKEVEQDPGPLSVPEGAIVSLNCTYSNSAFQYFMWYRQYSRKGPELLMYTYSSGNKEDGRFTAQVDKSSKYISLFIRDSQPSDSATYLCAMSDVSGGYNKLIFGAGTRLAVHP V domain 2: EAQVTQNPRYLITVTGKKLTVTCSQNMNHEYMSWYRQDPGLGLRQIYYSMNVEVTDKGDVPEGYKVSRKEKRNFPLILESPSPNQTSLYFCASTTPDGTDEQFFGPGTRLTVLE" val=100
binder="TCR R59P2E7 (TCR, V domains shown) V domain 1: KQEVTQIPAALSVPEGENLVLNCSFTDSAIYNLQWFRQDPGKGLTSLLLIQSSQREQTSGRLNASLDKSSGRSTLYIAASQPGDSATYLCAVNSDYKLSFGAGTTVTVRA V domain 2: AAGVIQSPRHLIKEKRETATLKCYPIPRHDTVYWYQQGPGQDPQFLISFYEKMQSDKGSIPDRFSAQQFSDYHSELNMSSLELGDSALYFCASSLGLGTGDYGYTFGSGTRLTVVE" val=386
binder="TCR R26P1A9 (TCR, V domains shown) V domain 1: SQQGEEDPQALSIQEGENATMNCSYKTSINNLQWYRQNSGRGLVHLILIRSNEREKHSGRLRVTLDTSKKSSSLLITASRAADTASYFCLIGASGSRLTFGEGTQLTVNP V domain 2: DAGVIQSPRHEVTEMGQEVTLRCKPISGHDYLFWYRQTMMRGLELLIYFNNNVPIDDSGMPEDRFSAKMPNASFSTLKIQPSEPRDSAVYFCASSYFGWNEKLFFGSGTQLSVLE" val=6
binder="TCR R42P3A9 (TCR, V domains shown) V domain 1: GIQVEQSPPDLILQEGANSTLRCNFSDSVNNLQWFHQNPWGQLINLFYIPSGTKQNGRLSATTVATERYSLLYISSSQTTDSGVYFCAVHNFNKFYFGSGTKLNVKP V domain 2: AAGVIQSPRHLIKEKRETATLKCYPIPRHDTVYWYQQGPGQDPQFLISFYEKMQSDKGSIPDRFSAQQFSDYHSELNMSSLELGDSALYFCASSLLGQGYNEQFFGPGTRLTVLE" val=823
binder="TCR R37P1H1 (TCR, V domains shown) V domain 1: AQTVTQSQPEMSVQEAETVTLSCTYDTSESNYYLFWYKQPPSRQMILVIRQEAYKQQNATENRFSVNFQKAAKSFSLKISDSQLGDTAMYFCAFGYSGGGADGLTFGKGTHLIIQP V domain 2: DAGVTQSPTHLIKTRGQQVTLRCSPKSGHDTVSWYQQALGQGPQFIFQYYEEEERQRGNFPDRFSGHQFPNYSSELNVNALLLGDSALYLCASSNEGQGWEAEAFFGQGTRLTVVE" val=26
